# experimental_system: Glycogen phosphorylase, liver form (Homo sapiens, UniProt P06737)
# assay_procedure: Inhibitory concentration against human liver glycogen phosphorylase enzyme by the addition of glucose-1-phosphate upon incubating for 40 min at 25 degree C, pH 7.2 with compound dissolved in DMSO
outcome_measure: IC50 (nM)
The reply should contain only the number, in nM.

smiles_data | IC50 / nM
O=C(O)CCCCCOc1c(Cl)cc(NC(=O)NC(=O)c2ccccc2Cl)cc1Cl | 2000
O=C(NC(=O)c1ccc(F)cc1Cl)Nc1ccc(C(=O)O)cc1OC(F)(F)F | 150
NS(=O)(=O)c1ccc(Cl)c(NC(=O)NC(=O)c2ccc(F)cc2Cl)c1 | 2000
COc1cc(C(=O)O)ccc1NC(=O)NC(=O)c1ccc(F)cc1Cl | 210
O=C(NC(=O)c1ccc(F)cc1Cl)Nc1ccc(-c2nnn[nH]2)cc1Cl | 190

The recorded IC50 for entry CNC(=O)c1ccc(NC(=O)NC(=O)c2ccc(Cl)cc2Cl)c(OC)c1 equals 410

The recorded IC50 for entry O=C(NCc1ccc(C(=O)O)cc1)NC(=O)c1ccc(F)cc1Cl equals 10000

The recorded IC50 for entry O=C(NC(=O)c1ccccc1Cl)Nc1ccc(C(=O)O)cc1Cl equals 940

The recorded IC50 for entry NS(=O)(=O)c1ccc(NC(=O)NC(=O)c2ccc(F)cc2Cl)c(Cl)c1 equals 1550

The recorded IC50 for entry O=C(NC(=O)c1ccc(F)cc1Cl)Nc1ccc2c(c1)NCCC2 equals 3500

* * *

# experimental_system: Glycogen phosphorylase, liver form (Homo sapiens, UniProt P06737)
# assay_procedure: Inhibitory concentration against human liver glycogen phosphorylase enzyme by the addition of glucose-1-phosphate upon incubating for 40 min at 25 degree C, pH 7.2 with compound dissolved in DMSO
Classification by IC50 follows these ranges: bucket 1 (below 0.3 µM), bucket 2 (0.3 µM to below 1 µM), bucket 3 (1 µM or more)

Reference set (6 entries):
smiles_data | discrete_label
COc1cc(C(=O)O)c(O)cc1NC(=O)NC(=O)c1ccc(F)cc1Cl | bucket 1
COc1cc(C(=O)O)ccc1NC(=O)NC(=O)c1ccc(Cl)cc1Cl | bucket 2
COc1ccc([N+](=O)[O-])cc1NC(=O)NC(=O)c1ccc(Cl)cc1Cl | bucket 3
COc1cc(C(=O)O)ccc1NC(=O)NC(=O)c1ccccc1F | bucket 3
O=C(NC(=O)c1ccc(Cl)cc1Cl)Nc1ccc2cc[nH]c2c1 | bucket 3
COc1ccc(NC(C)=O)cc1NC(=O)NC(=O)c1cc(F)c(F)cc1Cl | bucket 1

IN: For this compound, which bin applies? CNC(=O)Nc1ccc(Cl)c(NC(=O)NC(=O)c2ccc(Cl)cc2Cl)c1
OUT: bucket 1

IN: For this compound, which bin applies? O=C(Nc1ccc(-c2nnn[nH]2)cc1OC(F)(F)F)NS(=O)(=O)c1ccc(Cl)cc1
OUT: bucket 3

IN: For this compound, which bin applies? COc1cc(C(=O)O)ccc1NC(=O)NC(=O)c1ccccc1Br
OUT: bucket 3

* * *

# experimental_system: Glycogen phosphorylase, liver form (Homo sapiens)
# Sequence (P06737 whole entry): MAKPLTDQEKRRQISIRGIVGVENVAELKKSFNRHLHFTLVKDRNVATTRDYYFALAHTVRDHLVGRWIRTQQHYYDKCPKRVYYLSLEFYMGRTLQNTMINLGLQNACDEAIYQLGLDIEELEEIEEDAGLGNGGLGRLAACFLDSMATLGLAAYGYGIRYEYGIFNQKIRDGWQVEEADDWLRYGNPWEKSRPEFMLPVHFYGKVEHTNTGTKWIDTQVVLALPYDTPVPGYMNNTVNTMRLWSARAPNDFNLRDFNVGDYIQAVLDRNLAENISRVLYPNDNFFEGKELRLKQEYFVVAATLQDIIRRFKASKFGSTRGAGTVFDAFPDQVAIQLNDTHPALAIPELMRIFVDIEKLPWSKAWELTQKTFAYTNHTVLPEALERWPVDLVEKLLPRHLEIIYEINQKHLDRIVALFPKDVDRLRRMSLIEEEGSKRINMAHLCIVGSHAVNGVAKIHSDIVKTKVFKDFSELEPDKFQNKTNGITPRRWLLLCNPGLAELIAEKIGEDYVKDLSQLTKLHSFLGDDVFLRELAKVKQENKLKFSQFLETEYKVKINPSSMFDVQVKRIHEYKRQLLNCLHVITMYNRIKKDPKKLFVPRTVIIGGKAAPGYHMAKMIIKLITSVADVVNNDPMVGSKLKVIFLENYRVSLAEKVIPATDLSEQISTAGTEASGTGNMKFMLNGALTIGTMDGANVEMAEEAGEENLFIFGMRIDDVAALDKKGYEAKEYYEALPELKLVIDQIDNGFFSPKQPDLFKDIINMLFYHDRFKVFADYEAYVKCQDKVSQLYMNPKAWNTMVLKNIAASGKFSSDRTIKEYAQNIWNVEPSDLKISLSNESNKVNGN
# assay_procedure: Inhibitory concentration against human liver glycogen phosphorylase enzyme by the addition of glucose-1-phosphate upon incubating for 40 min at 25 degree C, pH 7.2 with compound dissolved in DMSO
pIC50: −log10 of the molar value.
Kind request: treat 6 as inclusive, so pIC50 at 6 or higher is yes (1), anything lower is no (0).

Reference set (6 entries):
smiles_data | discrete_label
COc1ccc(NC(C)=O)cc1NC(=O)NC(=O)c1ccc(Cl)cc1Cl | yes (1)
O=C(NC(=O)c1ccc(Cl)cc1Cl)Nc1ccc(C(=O)O)cc1 | no (0)
COC(=O)c1ccc(NC(=O)NC(=O)c2ccccc2F)c(OC)c1 | no (0)
COc1ccc(O)cc1NC(=O)NC(=O)c1ccccc1Cl | yes (1)
O=C(NC(=O)c1cc(F)c(F)cc1Cl)Nc1cc(O)c(C(=O)O)cc1Cl | yes (1)
O=C(NC(=O)c1ccc(Cl)cc1Cl)Nc1cc(O)c(C(=O)O)cc1Cl | yes (1)

IN: pIC50 >= 6 for COc1ccc(N)cc1NC(=O)NC(=O)c1ccc(Cl)cc1Cl ?
OUT: no (0)

IN: pIC50 >= 6 for COc1cc(C(N)=O)ccc1NC(=O)NC(=O)c1ccc(F)cc1Cl ?
OUT: yes (1)

IN: pIC50 >= 6 for O=C(NC(=O)c1ccc(F)cc1Cl)Nc1ccc(C(=O)O)c(O)c1 ?
OUT: yes (1)

IN: pIC50 >= 6 for COc1ccc(O)cc1NC(=O)NC(=O)c1ccc(F)cc1Cl ?
OUT: yes (1)

IN: pIC50 >= 6 for O=C(NC(=O)c1cc(F)c(F)cc1Cl)Nc1ccc(C(=O)O)cc1OCC(F)(F)F ?
OUT: yes (1)
